Source listed as the supplement of paper PMC10567573.

B1: ZNF263 (parent)
chain: FAHSSNLLRHQRIHTGERPYKCPE

Variants of: B1
assayMethodText: protein stability index of a GFP-peptide fusion (GPS, HEK-293T) (PSI 1-6); higher = more stable;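 note: lentivirally expressed fusions sorted by FACS into six bins by GFP to DsRed ratio, PSI derived from sequencing read proportions per bin multiplied by bin number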
conditionSummary: c terminus: a fixed tail appended
measuredParameter: protein stability index
Please state the value as a number alone, without comment.

Input: Identify the reported protein stability index for the following entry. `E24I`
Output: 1.7

Input: Name the recorded protein stability index of the item `Q11M` in your answer.
Output: 1.84

Input: Tell me measured protein stability index for `I13T` please.
Output: 2.82

Input: // fetch protein stability index given entry `E17I`
Output: 2.29

Input: Please supply the value of reported protein stability index for the item `P23L`
Output: 2.12

Input: Given the variant `L8G` , write its reported protein stability index.
Output: 2.35

Input: Read the entry `Q11S` and write its reported protein stability index.
Output: 1.98

Input: Specify protein stability index for `H3I` and stop.
Output: 2.34

Input: Quick one: give measured protein stability index for `K21V`
Output: 2.65

Input: Identify protein stability index associated with the variant `I13D`
Output: 3.09

Input: Please report the measured protein stability index for `H14T`
Output: 1.91

Input: Give the reported value of protein stability index for this record: `P23F`
Output: 2.11

Input: Specify measured protein stability index for `R9Y` .
Output: 2.36

Input: Supply measured protein stability index of `H10D` in your reply.
Output: 3.13

Input: Using the record for `R12F` , state its measured protein stability index.
Output: 2.17

Input: Give a short answer stating reported protein stability index for `Y20W` .
Output: 2.75

Input: Look up and state reported protein stability index for `H14Q`
Output: 2.98

Input: Answer with the recorded protein stability index for the variant listed here: `Q11P`
Output: 1.79

Input: Let me know recorded protein stability index for `E17A` , thanks.
Output: 2.31

Input: For the variant `H14C` , give its reported protein stability index.
Output: 3.21

Input: Give the reported protein stability index for this variant. `R12N`
Output: 2.84

Input: Return protein stability index for the following variant: `A2G`
Output: 3.17

Input: Answer with the recorded protein stability index of `P19F` only.
Output: 2.74

Input: State its protein stability index: `K21F`
Output: 2.56

Input: Answer with reported protein stability index of `P19L`
Output: 2.65

Input: Give recorded protein stability index. `T15L`
Output: 2.36

Input: Indicate its recorded protein stability index; the variant in question is `R18V`
Output: 2.46

Input: Give protein stability index for `P19E`
Output: 3.67

Input: Note protein stability index for the variant shown: `L8D`
Output: 3.05

Input: Supply protein stability index value. Item: `E24P`
Output: 1.87

Input: Recall and state the measured protein stability index for `R12L` .
Output: 2.44

Input: Check the records and state protein stability index for `A2T`
Output: 2.43

Input: Report protein stability index for `L7F`
Output: 1.84

Input: Find the measured protein stability index of `R12G` and report it.
Output: 2.72

Input: Tell me measured protein stability index for `S4R` please.
Output: 2.07

Input: Give the reported protein stability index for this variant. `H14I`
Output: 2.57

Input: Kindly indicate its recorded protein stability index. Item: `S5V`
Output: 2.12

Input: Specify protein stability index for `H10F` and stop.
Output: 1.69

Input: Report protein stability index, nothing else, for this variant: `L7D`
Output: 2.75

Input: Entry `C22I` needs its protein stability index filled in; supply it.
Output: 2.06

Input: Could you please provide reported protein stability index for `R9M` ? Thanks!
Output: 3.05

Input: Supply measured protein stability index of `R9G` in your reply.
Output: 2.45

Input: Give the reported protein stability index for this variant. `S5I`
Output: 2.31

Input: Please indicate protein stability index recorded for `L7E`
Output: 3.14

Input: Entry `N6L` needs its protein stability index filled in; supply it.
Output: 1.58

Input: Retrieve protein stability index measured for `I13V` and print it.
Output: 2.13
